assay: Toxicity liver stage against HepG2, at 10uM; type: cell-based; design: test concentration 10 uM, cell line HepG2-A16-CD81EGFP; conditions: human, HepG2-A16-CD81EGFP cells; read-out: INHIBITION
Property: cytotoxicity at 10 µM (%)
Give just the numeric value; % need not be written.

Some solved cases for reference:
[[record]]
molecule = "CCOc1cc(CNCC2CN(C3CC3)CCO2)ccc1OC (centres undefined)"
property = "cytotoxicity at 10 µM"
recorded_measurement = -5.95

[[record]]
molecule = "Cc1ccc2c(c1)C(N1CCOCC1)CC21CCNCC1 (centres undefined)"
property = "cytotoxicity at 10 µM"
recorded_measurement = -116

[[record]]
molecule = "Cc1n[nH]c(C)c1NC(=O)CN1CCOC(Cn2cccn2)C1 (centres undefined)"
property = "cytotoxicity at 10 µM"
recorded_measurement = -2.82

[[record]]
molecule = "COc1ccc(CN2C[C@@H]3OCCN(CCN4CCCC4)[C@@H]3C2)cc1"
property = "cytotoxicity at 10 µM"
recorded_measurement = -82.4

[[record]]
molecule = "CCNC(=O)c1ccc2ccc(N(CC)CC)n2c1"
property = "cytotoxicity at 10 µM"
recorded_measurement = 1.67


# input # cytotoxicity at 10 µM lookup, item CCN(C(=O)CSc1ccc(C(F)(F)F)cn1)C1CC1
# output 7.77

# input Request: CCCN1CCC(N(C)C(=O)c2cc(C)nc3cc(F)ccc23)CC1
# output 0.906

# input Request: OCc1cc(C2CCCN2c2ncccn2)n[nH]1 (centres undefined)
# output 8.32

Where do the numbers come from? From ChEMBL document CHEMBL4513216.
